- assay_text: Volume of distribution at steady state in rat at 1 mg/kg, iv and 3 mg/kg, po
- Format: ADME, organism-based
- applied_conditions: in vivo, read-out: Vdss
Give Vd for every item shown.

O=S(=O)(Nc1cncc(C(F)(F)F)c1)c1ccccc1C(F)(F)F | 0.14 L/kg

### Prompt # Vd lookup, item O=S(=O)(Nc1ccc(C(F)(F)F)nc1)c1ccccc1C(F)(F)F
### Response 0.4 L/kg

###

- experimental_target: UniProt Q96S37
- assay_text: Inhibition of human C-terminal eGFP-tagged URAT1 long isoform expressed in CHO cells assessed as decrease in [14C]-uric acid uptake preincubated for 15 mins followed by [14C]-uric acid addition and incubated in dark for 3 hrs by scintillation counting method
- Format: cell-based
quantity_measured: IC50 (nM)
One number for each entry, in nM.

Give measured IC50 for every item shown.
1. COc1cncc(NS(=O)(=O)c2ccccc2C(F)(F)F)c1
2. O=S(=O)(Nc1ccccc1OC(F)F)c1ccccc1C(F)(F)F
3. Cc1ccccc1S(=O)(=O)Nc1ccc(C#N)c(Cl)c1
4. Cc1ccc(NS(=O)(=O)c2ccccc2C(F)(F)F)cn1
5. N#Cc1ccccc1NS(=O)(=O)c1ccccc1C(F)(F)F
6. O=S(=O)(Nc1cncc(Br)c1)c1ccccc1C(F)(F)F
7. COc1ncccc1NS(=O)(=O)c1ccccc1C(F)(F)F
8. Cc1ccccc1S(=O)(=O)Nc1ccc(Cl)c(C#N)c1

### Response
89
1970
89
1030
616
35
3920
183

###

- experimental_target: Cytochrome P450 2C9 (Homo sapiens)
- Sequence (P11712 whole entry): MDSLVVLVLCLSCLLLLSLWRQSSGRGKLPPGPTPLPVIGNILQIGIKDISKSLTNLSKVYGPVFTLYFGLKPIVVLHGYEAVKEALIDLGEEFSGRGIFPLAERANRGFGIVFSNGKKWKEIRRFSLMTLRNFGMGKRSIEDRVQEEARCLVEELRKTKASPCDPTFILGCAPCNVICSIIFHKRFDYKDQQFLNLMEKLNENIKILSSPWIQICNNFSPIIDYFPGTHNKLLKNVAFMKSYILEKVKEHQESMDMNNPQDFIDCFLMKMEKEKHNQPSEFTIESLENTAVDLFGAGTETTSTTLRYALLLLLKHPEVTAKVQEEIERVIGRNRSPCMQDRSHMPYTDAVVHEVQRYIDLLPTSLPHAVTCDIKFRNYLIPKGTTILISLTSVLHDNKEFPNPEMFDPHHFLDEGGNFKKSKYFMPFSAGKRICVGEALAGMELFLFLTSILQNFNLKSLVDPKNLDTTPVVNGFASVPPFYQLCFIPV
quantity_measured: IC50
Could you give the number and then its unit, please?

### Prompt Please tell me: IC50 of O=S(=O)(Nc1ccc(C(F)(F)F)nc1)c1ccccc1C(F)(F)F , system Cytochrome P450 2C9 (Homo sapiens)?
### Response 1100 nM

###

- experimental_target: Cytochrome P450 3A4 (Homo sapiens, UniProt P08684)
- Sequence (P08684 whole entry): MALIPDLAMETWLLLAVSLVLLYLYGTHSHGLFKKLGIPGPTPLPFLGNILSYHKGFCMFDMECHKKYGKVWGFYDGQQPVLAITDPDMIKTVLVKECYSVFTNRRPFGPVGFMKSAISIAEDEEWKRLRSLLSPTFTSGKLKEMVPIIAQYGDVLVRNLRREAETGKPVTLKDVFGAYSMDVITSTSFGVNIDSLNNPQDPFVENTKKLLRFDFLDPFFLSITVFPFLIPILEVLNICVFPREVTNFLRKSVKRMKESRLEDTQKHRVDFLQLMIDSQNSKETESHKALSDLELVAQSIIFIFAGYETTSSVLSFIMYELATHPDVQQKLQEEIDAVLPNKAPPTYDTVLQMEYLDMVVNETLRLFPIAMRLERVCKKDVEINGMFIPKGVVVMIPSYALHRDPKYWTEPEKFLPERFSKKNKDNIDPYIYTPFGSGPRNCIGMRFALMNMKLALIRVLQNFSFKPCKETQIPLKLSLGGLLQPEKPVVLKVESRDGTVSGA
quantity_measured: IC50

### Prompt # IC50 lookup, item O=S(=O)(Nc1ccc(C(F)(F)F)nc1)c1ccccc1C(F)(F)F
### Response > 30 µM

###

- experimental_target: BCRP (ABCG2) (Homo sapiens, UniProt Q9UNQ0)
- Sequence (Q9UNQ0 whole entry): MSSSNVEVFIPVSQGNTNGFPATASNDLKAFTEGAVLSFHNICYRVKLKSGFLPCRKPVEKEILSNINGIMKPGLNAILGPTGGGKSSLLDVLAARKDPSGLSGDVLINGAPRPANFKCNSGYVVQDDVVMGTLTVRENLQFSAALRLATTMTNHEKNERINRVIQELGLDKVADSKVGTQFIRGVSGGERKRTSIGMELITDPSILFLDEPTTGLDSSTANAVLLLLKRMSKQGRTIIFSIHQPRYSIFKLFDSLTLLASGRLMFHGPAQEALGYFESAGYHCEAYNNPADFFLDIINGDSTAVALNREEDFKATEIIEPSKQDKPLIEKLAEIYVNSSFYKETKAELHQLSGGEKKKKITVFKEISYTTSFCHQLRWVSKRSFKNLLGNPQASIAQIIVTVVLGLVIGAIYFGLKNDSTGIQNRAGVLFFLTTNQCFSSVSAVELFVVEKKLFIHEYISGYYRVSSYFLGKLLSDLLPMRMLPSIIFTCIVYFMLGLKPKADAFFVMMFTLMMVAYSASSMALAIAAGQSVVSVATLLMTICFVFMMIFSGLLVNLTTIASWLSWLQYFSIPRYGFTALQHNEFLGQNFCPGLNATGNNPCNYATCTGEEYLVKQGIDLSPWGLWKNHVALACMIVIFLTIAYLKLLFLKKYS
- assay_text: Substrate activity at BCRP (unknown origin) assessed as efflux ratio of permeability
- Type: ADME
- applied_conditions: not told
quantity_measured: efflux ratio
Give bare numbers.

### Prompt # efflux ratio lookup, item O=S(=O)(Nc1ccc(C(F)(F)F)nc1)c1ccccc1C(F)(F)F
### Response 3.3

###

- assay_text: Solubility of the compound at pH 6.5
- Format: physicochemical
- applied_conditions: buffer
Give solubility for every item shown.
Give bare numbers, in µM.

O=S(=O)(Nc1ccc(C(F)(F)F)nc1)c1ccccc1C(F)(F)F | 620

Kindly consider the entry below.
### Prompt # solubility lookup, item O=S(=O)(Nc1cncc(C(F)(F)F)c1)c1ccccc1C(F)(F)F
### Response 489

###

- assay_text: Plasma clearance in dog at 0.363 mg/kg, iv and 0.737 mg/kg, po
- Type: ADME, organism-based, Canis lupus familiaris
quantity_measured: clearance (mL/day/kg)
Numbers only, in mL/day/kg.

### Prompt # clearance lookup, item O=S(=O)(Nc1ccc(C(F)(F)F)nc1)c1ccccc1C(F)(F)F
### Response 20.2

###

- experimental_target: Solute carrier family 22 member 12 (Homo sapiens, UniProt Q96S37)
- Sequence (Q96S37 whole entry, canonical isoform): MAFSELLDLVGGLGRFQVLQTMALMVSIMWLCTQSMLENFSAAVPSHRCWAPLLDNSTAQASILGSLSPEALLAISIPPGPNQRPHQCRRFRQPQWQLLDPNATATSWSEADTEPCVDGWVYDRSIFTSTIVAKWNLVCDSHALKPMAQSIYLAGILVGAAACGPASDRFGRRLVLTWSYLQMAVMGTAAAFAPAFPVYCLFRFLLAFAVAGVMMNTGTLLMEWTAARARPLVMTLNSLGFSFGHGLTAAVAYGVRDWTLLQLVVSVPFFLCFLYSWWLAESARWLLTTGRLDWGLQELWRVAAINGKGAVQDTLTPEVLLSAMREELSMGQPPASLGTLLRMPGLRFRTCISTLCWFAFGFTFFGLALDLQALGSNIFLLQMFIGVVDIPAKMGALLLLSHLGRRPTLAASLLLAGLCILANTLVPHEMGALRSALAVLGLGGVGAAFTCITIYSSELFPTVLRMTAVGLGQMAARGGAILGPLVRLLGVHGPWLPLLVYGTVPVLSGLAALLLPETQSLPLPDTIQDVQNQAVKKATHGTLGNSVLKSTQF
- assay_text: Inhibition of human C-terminal eGFP-tagged URAT1 long isoform expressed in CHO cells assessed as decrease in [14C]-uric acid uptake preincubated for 15 mins followed by [14C]-uric acid addition and incubated in dark for 3 hrs by scintillation counting method
pIC50: −log10 of the molar value.
Use Met when the recorded pIC50 is no lower than 7; use Not met when it is lower.

Please review the following examples before continuing.
O=S(=O)(Nc1cccc(OC(F)(F)F)c1)c1ccccc1C(F)(F)F | Not met
N#Cc1cc(NS(=O)(=O)c2ccccc2C(F)(F)F)ccc1C(F)(F)F | Met

### Prompt Tell me whether pIC50 is at least 7 here: O=S(=O)(Nc1ccccc1F)c1ccccc1C(F)(F)F
### Response Not met

### Prompt Again, but for COc1ccccc1S(=O)(=O)Nc1ccc(C#N)c(Cl)c1
### Response Not met

### Prompt Again, but for N#Cc1c(Cl)cccc1NS(=O)(=O)c1ccccc1C(F)(F)F
### Response Met

### Prompt Again, but for O=S(=O)(Nc1ccc(C(F)(F)F)nc1)c1ccccc1C(F)(F)F
### Response Met

### Prompt Again, but for N#Cc1ccc(NS(=O)(=O)c2ccccc2C(F)(F)F)c(Cl)c1
### Response Met
